assay: Thermodynamic (equilibrium) solubility; format: physicochemical; conditions: Example 1; read-out: thermodynamic (or equilibrium) solubility
measured.quantity: solubility thermodynamic (µM)
Give bare numbers, in µM.

Task: Please give the measured solubility thermodynamic for this compound: CCCCCC(CC(=O)CCc1ccc(O)c(OC)c1)SCC(NC(=O)CCC(N)C(=O)O)C(=O)NCC(=O)O (stereo not shown)
Output: 1390

====

experiment: Kinetic solubility; format: physicochemical; settings: Example 1
measured.quantity: solubility kinetic

Task: Please give the measured solubility kinetic for this molecule: CCCCCC(CC(=O)CCc1ccc(O)c(OC)c1)SCC(NC(=O)CCC(N)C(=O)O)C(=O)NCC(=O)O (stereo not shown) [M13, 5-glutathione-6-shogaol]
Output: > 200 µM
